- Target under test: E3 ubiquitin-protein ligase XIAP (Homo sapiens, UniProt P98170)
- Sequence (P98170 whole entry, looked up, the tested form may be a part): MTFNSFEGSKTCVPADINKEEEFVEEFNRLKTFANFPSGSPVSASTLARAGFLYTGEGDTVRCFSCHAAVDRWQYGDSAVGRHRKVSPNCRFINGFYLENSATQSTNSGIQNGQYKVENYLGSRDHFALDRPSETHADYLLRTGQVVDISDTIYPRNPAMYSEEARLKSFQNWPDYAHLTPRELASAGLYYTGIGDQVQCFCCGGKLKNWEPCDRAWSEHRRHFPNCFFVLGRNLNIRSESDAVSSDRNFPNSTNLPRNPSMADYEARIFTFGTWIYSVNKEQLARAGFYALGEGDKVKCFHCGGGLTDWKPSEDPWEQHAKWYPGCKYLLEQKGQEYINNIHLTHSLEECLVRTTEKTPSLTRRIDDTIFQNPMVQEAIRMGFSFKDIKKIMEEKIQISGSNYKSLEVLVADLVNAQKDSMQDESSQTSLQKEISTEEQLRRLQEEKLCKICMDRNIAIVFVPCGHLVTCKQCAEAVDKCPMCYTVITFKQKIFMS
- Assay remarks: Inhibition of XIAP BIR3 (241 to 356 residues) (unknown origin) incubated for 60 mins by fluoresceinated modified SMAC peptide based fluorescence polarization assay
Entries and their IC50
Record the value in nM, omitting the unit from your answer.

{"Mol smiles": "CN[C@@H](C)C(=O)N[C@H](C(=O)N1C[C@@H]2C[C@H]1C(=O)N[C@@H](Cc1ccc3ccccc3c1)C(=O)N[C@H](C(=O)O)Cc1cn(nn1)[C@H]1C[C@@H](C(=O)N[C@@H](Cc3ccc4ccccc4c3)C(=O)N[C@H](C(=O)O)Cc3cn2nn3)N(C(=O)[C@@H](NC(=O)[C@H](C)NC)C(C)C)C1)C(C)C", "Result units": "nM", "IC50": 65}

According to the records, this compound CN[C@@H](C)C(=O)N[C@H]1Cc2ccc(cc2)OCc2cn(nn2)CCOc2ccc(cc2)C[C@H](C(=O)O)NC(=O)[C@H](Cc2ccccc2)NC(=O)[C@@H]2CCCN2C1=O displays IC50 of 2880

---

- Tested on: Mus musculus
- Assay remarks: AUClast in Balb/C mouse at 0.2 mg/kg, iv administered as single dose by LC-MS/MS method
- Format: ADME, organism-based, Plasma
- Set-up: dose 0.2 mg/kg, route intravenous, time 0 - last
- Condition set: in vivo
Measurement name: AUClast (µg·h/mL)
Record the value in µg·h/mL, omitting the unit from your answer.

According to the records, this compound CN[C@@H](C)C(=O)N[C@H](C(=O)N1C[C@@H]2C[C@H]1C(=O)N[C@@H](Cc1ccc3ccccc3c1)C(=O)N[C@H](C(=O)O)Cc1ccc(cc1)OCc1cn(nn1)[C@H]1C[C@@H](C(=O)N[C@@H](Cc3ccc4ccccc4c3)C(=O)N[C@H](C(=O)O)Cc3ccc(cc3)OCc3cn2nn3)N(C(=O)[C@@H](NC(=O)[C@H](C)NC)C2CCCCC2)C1)C1CCCCC1 displays AUClast of 0.457

---

- Assay remarks: Mean residence time in Balb/C mouse at 0.2 mg/kg, iv administered as single dose by LC-MS/MS method
- Assay type: ADME, organism-based
- Design: dose 0.2 mg/kg, route intravenous
- Condition set: in vivo
Measurement name: MRT (h)
Record the value in h, omitting the unit from your answer.

According to the records, this compound CN[C@@H](C)C(=O)N[C@H](C(=O)N1C[C@@H]2C[C@H]1C(=O)N[C@@H](Cc1ccc3ccccc3c1)C(=O)N[C@H](C(=O)O)Cc1ccc(cc1)OCc1cn(nn1)[C@H]1C[C@@H](C(=O)N[C@@H](Cc3ccc4ccccc4c3)C(=O)N[C@H](C(=O)O)Cc3ccc(cc3)OCc3cn2nn3)N(C(=O)[C@@H](NC(=O)[C@H](C)NC)C2CCCCC2)C1)C1CCCCC1 displays MRT of 2.5

---

Entries and their EC50
- Target under test: BIR2 domain of XIAP (Homo sapiens, UniProt P98170, C202A/C213G)
- Sequence (P98170 whole entry C202A/C213G, looked up, the tested form may be a part): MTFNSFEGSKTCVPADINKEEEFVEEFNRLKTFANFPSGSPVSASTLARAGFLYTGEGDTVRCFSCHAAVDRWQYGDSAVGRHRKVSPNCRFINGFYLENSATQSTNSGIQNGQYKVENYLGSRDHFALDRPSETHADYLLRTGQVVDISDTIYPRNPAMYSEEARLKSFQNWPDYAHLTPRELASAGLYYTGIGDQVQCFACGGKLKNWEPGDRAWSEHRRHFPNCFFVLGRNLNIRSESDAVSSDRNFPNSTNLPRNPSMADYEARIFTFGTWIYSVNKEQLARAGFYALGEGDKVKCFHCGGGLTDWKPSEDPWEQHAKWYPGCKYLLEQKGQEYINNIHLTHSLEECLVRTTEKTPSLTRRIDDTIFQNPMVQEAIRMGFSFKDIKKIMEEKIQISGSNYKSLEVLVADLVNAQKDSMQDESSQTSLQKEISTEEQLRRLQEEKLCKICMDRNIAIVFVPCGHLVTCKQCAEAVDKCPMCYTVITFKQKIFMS
- Assay remarks: Inhibition of XIAP BIR2-3 (124 to 356 residues) C202A/C213G mutant (unknown origin) in human THP1 cells using fluoresceinated caspase-3 substrate by caspase-3 rescue assay
Record the value in nM, omitting the unit from your answer.

Guide cases for EC50, answers given:
{"Mol smiles": "CN[C@@H](C)C(=O)N[C@H](C(=O)N1C[C@@H]2C[C@H]1C(=O)N[C@@H](Cc1ccccc1)C(=O)N[C@H](C(=O)O)Cc1ccc(cc1)NC(=O)CCc1cn(nn1)[C@H]1C[C@@H](C(=O)N[C@@H](Cc3ccccc3)C(=O)N[C@H](C(=O)O)Cc3ccc(cc3)NC(=O)CCc3cn2nn3)N(C(=O)[C@@H](NC(=O)[C@H](C)NC)C(C)C)C1)C(C)C", "EC50 (nM)": 70}
{"Mol smiles": "CN[C@@H](C)C(=O)N[C@H](C(=O)N1C[C@@H]2C[C@H]1C(=O)N[C@@H](Cc1ccc3ccccc3c1)C(=O)N[C@H](C(=O)O)Cc1cn(nn1)[C@H]1C[C@@H](C(=O)N[C@@H](Cc3ccc4ccccc4c3)C(=O)N[C@H](C(=O)O)Cc3cn2nn3)N(C(=O)[C@@H](NC(=O)[C@H](C)NC)C(C)C)C1)C(C)C", "EC50 (nM)": 49}

Now, please, on to the next molecule.
According to the records, this molecule CN[C@@H](C)C(=O)N[C@H](C(=O)N1C[C@@H]2C[C@H]1C(=O)N[C@@H](Cc1cccc3ccccc13)C(=O)N[C@H](C(=O)O)Cc1ccc(cc1)OCc1cn(nn1)[C@H]1C[C@@H](C(=O)N[C@@H](Cc3cccc4ccccc34)C(=O)N[C@H](C(=O)O)Cc3ccc(cc3)OCc3cn2nn3)N(C(=O)[C@@H](NC(=O)[C@H](C)NC)C(C)C)C1)C(C)C displays EC50 of 34

---

- Assay remarks: Volume of distribution at steady state in Balb/C mouse at 1 mg/kg, iv administered as single dose by LC-MS/MS method
- Assay type: ADME, organism-based
- Set-up: dose 1 mg/kg, route intravenous
- Condition set: in vivo, read-out: Vdss
Measurement name: Vd (L/kg)
Record the value in L/kg, omitting the unit from your answer.

{"Mol smiles": "CN[C@@H](C)C(=O)N[C@H](C(=O)N1C[C@@H]2C[C@H]1C(=O)N[C@@H](Cc1ccc3ccccc3c1)C(=O)N[C@H](C(=O)O)Cc1ccc(cc1)OCc1cn(nn1)[C@H]1C[C@@H](C(=O)N[C@@H](Cc3ccc4ccccc4c3)C(=O)N[C@H](C(=O)O)Cc3ccc(cc3)OCc3cn2nn3)N(C(=O)[C@@H](NC(=O)[C@H](C)NC)C(C)(C)C)C1)C(C)(C)C", "Vd [L/kg]": 0.34}

According to the records, this compound CN[C@@H](C)C(=O)N[C@H](C(=O)N1C[C@@H]2C[C@H]1C(=O)N[C@@H](Cc1ccc3ccccc3c1)C(=O)N[C@H](C(=O)O)Cc1cn(nn1)[C@H]1C[C@@H](C(=O)N[C@@H](Cc3ccc4ccccc4c3)C(=O)N[C@H](C(=O)O)Cc3cn2nn3)N(C(=O)[C@@H](NC(=O)[C@H](C)NC)C(C)C)C1)C(C)C displays Vd of 0.18

---

- Target under test: E3 ubiquitin-protein ligase XIAP (Homo sapiens, UniProt P98170)
- Assay remarks: Inhibition of XIAP BIR3 (241 to 356 residues) (unknown origin) incubated for 60 mins by fluoresceinated modified SMAC peptide based fluorescence polarization assay
Measurement name: IC50 (nM)

Guide cases for IC50, answers given:
{"Molecule": "CN[C@@H](C)C(=O)N[C@H](C(=O)N1C[C@@H]2C[C@H]1C(=O)N[C@@H](Cc1ccccc1)C(=O)N[C@H](C(=O)O)Cc1ccc(cc1)OCc1cn(nn1)[C@H]1C[C@@H](C(=O)N[C@@H](Cc3ccccc3)C(=O)N[C@H](C(=O)O)Cc3ccc(cc3)OCc3cn2nn3)N(C(=O)[C@@H](NC(=O)[C@H](C)NC)C(C)C)C1)C(C)C", "Result units": "nM", "IC50": 68}
{"Molecule": "CN[C@@H](C)C(=O)N[C@H](C(=O)N1C[C@@H]2C[C@H]1C(=O)N[C@@H](Cc1ccccc1)C(=O)N[C@H](C(=O)O)Cc1ccc(cc1)NC(=O)CCc1cn(nn1)[C@H]1C[C@@H](C(=O)N[C@@H](Cc3ccccc3)C(=O)N[C@H](C(=O)O)Cc3ccc(cc3)NC(=O)CCc3cn2nn3)N(C(=O)[C@@H](NC(=O)[C@H](C)NC)C(C)C)C1)C(C)C", "Result units": "nM", "IC50": 47}
{"Molecule": "CN[C@@H](C)C(=O)N[C@H](C(=O)N1C[C@@H]2C[C@H]1C(=O)N[C@@H](Cc1ccc3ccccc3c1)C(=O)N[C@H](C(=O)O)Cc1ccc(cc1)OCc1cn2nn1)C(C)(C)C", "Result units": "nM", "IC50": 214}
{"Molecule": "CN[C@@H](C)C(=O)N[C@H]1CCCCNC(=O)CCc2cn(nn2)CCCC[C@@H](C(=O)O)NC(=O)[C@H](Cc2ccccc2)NC(=O)[C@@H]2CCCN2C1=O", "Result units": "nM", "IC50": 1360}

a = CN[C@@H](C)C(=O)N[C@H](C(=O)N1C[C@@H]2C[C@H]1C(=O)N[C@@H](Cc1ccccc1)C(=O)N[C@H](C(=O)O)Cc1ccc(cc1)OCc1cn2nn1)C(C)C
b = CN[C@@H](C)C(=O)N[C@H](C(=O)N1C[C@@H]2C[C@H]1C(=O)N[C@@H](Cc1ccc3ccccc3c1)C(=O)N[C@H](C(=O)O)Cc1ccc(cc1)OCc1cn2nn1)C1CCCCC1
c = CN[C@@H](C)C(=O)N[C@H](C(=O)N1C[C@@H]2C[C@H]1C(=O)N[C@@H](Cc1ccccc1)C(=O)N[C@H](C(=O)O)Cc1ccc(cc1)NC(=O)CCc1cn2nn1)C(C)C
d = CN[C@@H](C)C(=O)N[C@H]1Cc2ccc(cc2)OCc2cn(nn2)CCCOc2ccc(cc2)C[C@@H](C(=O)O)NC(=O)[C@H](Cc2ccccc2)NC(=O)[C@@H]2CCCN2C1=O
e = CN[C@@H](C)C(=O)N[C@H]1Cc2cn(nn2)CCOc2ccc(cc2)C[C@@H](C(=O)O)NC(=O)[C@H](Cc2ccccc2)NC(=O)[C@@H]2CCCN2C1=O
Query: rank_up(items): orders items by reported IC50 in ascending numerical order. List each label, following the requested order.
Response: c, a, b, d, e
